molecular target: Serine/threonine-protein kinase NLK (Homo sapiens) (UniProt Q9UBE8); conditions: at 1 µM
Sequence (Q9UBE8 whole entry): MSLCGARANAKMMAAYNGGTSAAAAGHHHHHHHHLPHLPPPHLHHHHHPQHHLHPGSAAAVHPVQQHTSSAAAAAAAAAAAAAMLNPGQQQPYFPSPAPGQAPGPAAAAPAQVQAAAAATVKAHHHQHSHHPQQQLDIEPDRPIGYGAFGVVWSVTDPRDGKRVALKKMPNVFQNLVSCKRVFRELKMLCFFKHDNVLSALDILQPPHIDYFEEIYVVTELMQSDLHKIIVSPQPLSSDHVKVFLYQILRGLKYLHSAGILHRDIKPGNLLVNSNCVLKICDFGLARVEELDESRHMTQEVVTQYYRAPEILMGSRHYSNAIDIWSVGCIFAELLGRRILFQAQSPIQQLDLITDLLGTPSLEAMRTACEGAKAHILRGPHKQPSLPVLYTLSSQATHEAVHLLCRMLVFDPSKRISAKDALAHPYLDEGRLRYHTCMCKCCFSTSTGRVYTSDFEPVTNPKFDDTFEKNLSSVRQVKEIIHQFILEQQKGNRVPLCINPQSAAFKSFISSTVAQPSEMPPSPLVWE
Each entry below carries its recorded residual activity.
Just the number please, in %, no unit attached.

Answered examples (5):
{"compound": "COc1cc2ncnc(Nc3ccc(OCc4ccccc4)cc3)c2cc1OC", "unit.abbreviation": "%", "recorded.number": 111}
{"compound": "COC(=O)[C@@]1(O)C[C@H]2O[C@]1(C)n1c3ccccc3c3c4c(c5c6ccccc6n2c5c31)C(=O)NC4", "unit.abbreviation": "%", "recorded.number": 42}
{"compound": "COc1ccc2c(c[n+](C)c3c4cc5c(cc4ccc23)OCO5)c1OC", "unit.abbreviation": "%", "recorded.number": 92}
{"compound": "O=[N+]([O-])/C=C/c1ccc2c(c1)OCO2", "unit.abbreviation": "%", "recorded.number": 107}
{"compound": "C[S+]([O-])c1ccc(-c2nc(-c3ccc(F)cc3)c(-c3ccncc3)[nH]2)cc1 (stereo not given)", "unit.abbreviation": "%", "recorded.number": 62}

Record summary for CC(C)[C@H](CO)Nc1nc(Nc2cccc(Cl)c2)c2ncn(C(C)C)c2n1 : reported residual activity = 100

Record summary for COc1ccc2c(c1)/C(=C/c1cnc[nH]1)C(=O)N2 : reported residual activity = 70

Record summary for COc1cc(OC)c(/C=C2\C(=O)Nc3ccccc32)c(OC)c1 : reported residual activity = 92

Record summary for O=c1[nH]c2ccccc2n1C1CCN(Cc2ccc(-c3nc4cc5[nH]cnc5cc4nc3-c3ccccc3)cc2)CC1 : reported residual activity = 105

Record summary for CCn1cnc2c(Nc3cccc(Cl)c3)nc(N[C@@H]3CCCC[C@@H]3N)nc21 : reported residual activity = 80

---

Biological target: Serine/threonine-protein kinase TAO3 (Homo sapiens)
Sequence (whole entry): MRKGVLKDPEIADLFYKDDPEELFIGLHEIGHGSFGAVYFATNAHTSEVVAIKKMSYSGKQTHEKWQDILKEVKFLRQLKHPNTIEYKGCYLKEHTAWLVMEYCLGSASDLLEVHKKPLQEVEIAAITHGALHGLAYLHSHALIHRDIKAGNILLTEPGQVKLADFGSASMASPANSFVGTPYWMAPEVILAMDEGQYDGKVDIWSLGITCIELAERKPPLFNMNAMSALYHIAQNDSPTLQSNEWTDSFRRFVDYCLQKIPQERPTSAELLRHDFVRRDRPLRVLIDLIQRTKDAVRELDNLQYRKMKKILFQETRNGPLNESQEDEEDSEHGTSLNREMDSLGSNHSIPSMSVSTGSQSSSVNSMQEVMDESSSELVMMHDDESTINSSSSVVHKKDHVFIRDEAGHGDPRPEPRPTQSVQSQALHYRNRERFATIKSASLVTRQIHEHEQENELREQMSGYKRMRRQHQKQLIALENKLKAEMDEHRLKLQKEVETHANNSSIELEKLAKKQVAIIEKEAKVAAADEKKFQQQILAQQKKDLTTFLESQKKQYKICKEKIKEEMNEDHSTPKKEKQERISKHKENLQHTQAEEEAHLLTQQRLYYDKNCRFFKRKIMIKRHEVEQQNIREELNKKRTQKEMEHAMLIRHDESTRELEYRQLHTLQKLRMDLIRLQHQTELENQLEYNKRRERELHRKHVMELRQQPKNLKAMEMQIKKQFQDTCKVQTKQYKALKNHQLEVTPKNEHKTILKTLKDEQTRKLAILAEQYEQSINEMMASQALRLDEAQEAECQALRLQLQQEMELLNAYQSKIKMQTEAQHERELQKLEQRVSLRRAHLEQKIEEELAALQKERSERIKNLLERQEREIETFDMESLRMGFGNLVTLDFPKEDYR
Conditions: at 10 µM
Each entry below carries its recorded residual activity.
Just the number please, in %, no unit attached.

Answered examples (2):
{"molecule.smiles": "CC(C)[C@H](CO)Nc1nc(Nc2cccc(Cl)c2)c2ncn(C(C)C)c2n1", "assay.target": "Serine/threonine-protein kinase TAO3 (Homo sapiens)", "recorded.number": 32}
{"molecule.smiles": "COc1ccc2c(c1)/C(=C/c1cnc[nH]1)C(=O)N2", "assay.target": "Serine/threonine-protein kinase TAO3 (Homo sapiens)", "recorded.number": 12}

Here's the next entry for you.
Record summary for N/C(=N\[N+](=O)[O-])N/N=C\c1ccc(-c2cccc([N+](=O)[O-])c2)o1 : reported residual activity = 93

---

target: High affinity nerve growth factor receptor (Homo sapiens) (UniProt P04629); conditions: at 1 µM
Sequence (P04629 33-796 limits assumed): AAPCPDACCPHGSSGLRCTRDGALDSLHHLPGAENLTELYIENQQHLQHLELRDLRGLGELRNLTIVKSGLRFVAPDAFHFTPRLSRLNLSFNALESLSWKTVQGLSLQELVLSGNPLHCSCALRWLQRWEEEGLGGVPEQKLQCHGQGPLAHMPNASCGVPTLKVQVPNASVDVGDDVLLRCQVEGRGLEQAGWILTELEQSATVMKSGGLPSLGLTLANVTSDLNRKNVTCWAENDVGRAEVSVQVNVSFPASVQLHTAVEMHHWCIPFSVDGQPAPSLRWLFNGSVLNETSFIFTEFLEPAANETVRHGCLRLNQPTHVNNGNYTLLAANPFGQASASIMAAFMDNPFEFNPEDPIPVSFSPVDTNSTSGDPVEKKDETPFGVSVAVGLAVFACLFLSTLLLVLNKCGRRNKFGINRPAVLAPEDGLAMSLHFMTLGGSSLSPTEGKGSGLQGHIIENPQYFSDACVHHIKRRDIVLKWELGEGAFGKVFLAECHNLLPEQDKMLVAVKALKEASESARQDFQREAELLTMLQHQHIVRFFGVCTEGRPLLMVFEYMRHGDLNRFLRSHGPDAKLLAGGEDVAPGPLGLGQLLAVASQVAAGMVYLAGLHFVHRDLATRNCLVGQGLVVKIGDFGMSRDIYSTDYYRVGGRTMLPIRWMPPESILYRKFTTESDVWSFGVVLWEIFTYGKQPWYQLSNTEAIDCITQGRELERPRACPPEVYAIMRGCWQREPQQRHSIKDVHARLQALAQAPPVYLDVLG
measured.property: residual activity (%)
Just the number please, in %, no unit attached.

Answered examples (5):
{"molecule": "COc1ccc2c(c1)/C(=C/c1cnc[nH]1)C(=O)N2", "assay.target": "High affinity nerve growth factor receptor (Homo sapiens) (UniProt P04629)", "unit.abbreviation": "%", "residual activity": 3}
{"molecule": "COc1cc(OC)c(/C=C2\\C(=O)Nc3ccccc32)c(OC)c1", "assay.target": "High affinity nerve growth factor receptor (Homo sapiens) (UniProt P04629)", "unit.abbreviation": "%", "residual activity": 89}
{"molecule": "c1cc(-c2cnn3cc(-c4ccc(OCCN5CCCCC5)cc4)cnc23)ccn1", "assay.target": "High affinity nerve growth factor receptor (Homo sapiens) (UniProt P04629)", "unit.abbreviation": "%", "residual activity": 28}
{"molecule": "C[S+]([O-])c1ccc(-c2nc(-c3ccc(F)cc3)c(-c3ccncc3)[nH]2)cc1 (stereo unspecified)", "assay.target": "High affinity nerve growth factor receptor (Homo sapiens) (UniProt P04629)", "unit.abbreviation": "%", "residual activity": 121}
{"molecule": "O=c1[nH]c2ccccc2n1C1CCN(Cc2ccc(-c3nc4cc5[nH]cnc5cc4nc3-c3ccccc3)cc2)CC1", "assay.target": "High affinity nerve growth factor receptor (Homo sapiens) (UniProt P04629)", "unit.abbreviation": "%", "residual activity": 86}

Here's the next entry for you.
Tested on High affinity nerve growth factor receptor (Homo sapiens) (UniProt P04629), the item CCn1cnc2c(Nc3cccc(Cl)c3)nc(N[C@@H]3CCCC[C@@H]3N)nc21 showed residual activity equal to 12

---

target: RAC-alpha serine/threonine-protein kinase (Homo sapiens) (UniProt P31749); settings: at 10 µM
Sequence (P31749 whole entry): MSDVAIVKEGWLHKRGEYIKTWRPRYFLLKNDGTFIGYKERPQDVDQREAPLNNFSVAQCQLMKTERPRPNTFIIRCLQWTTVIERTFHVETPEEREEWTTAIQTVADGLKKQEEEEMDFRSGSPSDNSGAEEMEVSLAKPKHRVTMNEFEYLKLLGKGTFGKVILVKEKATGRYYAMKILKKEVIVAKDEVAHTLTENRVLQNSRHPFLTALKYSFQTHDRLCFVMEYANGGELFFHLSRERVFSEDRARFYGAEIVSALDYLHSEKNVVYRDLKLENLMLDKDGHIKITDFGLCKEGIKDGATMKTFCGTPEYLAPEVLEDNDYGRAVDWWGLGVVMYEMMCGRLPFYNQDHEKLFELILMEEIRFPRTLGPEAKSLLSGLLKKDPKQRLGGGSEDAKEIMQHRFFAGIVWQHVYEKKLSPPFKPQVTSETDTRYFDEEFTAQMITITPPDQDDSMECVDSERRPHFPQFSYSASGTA
Each entry below carries its recorded residual activity.
Just the number please, in %, no unit attached.

Answered examples (2):
{"molecule.smiles": "O=C(O)c1ccc2c3c1cccc3c(=O)n1c3ccccc3nc21", "residual activity, %": 100}
{"molecule.smiles": "Cc1nc2cc3nc(-c4cccs4)cnc3cc2n1C", "residual activity, %": 105}

Record summary for O=C1NC(=O)C(c2cn(CCCn3ccnc3)c3ccccc23)=C1Nc1ccccc1 : reported residual activity = 102

Record summary for Cn1nc2c3c(cccc31)C(=O)c1ccccc1-2 : reported residual activity = 108

Record summary for CC(C)n1cnc2/c(=N/c3cccc(Cl)c3)nc(NCCO)[nH]c21 : reported residual activity = 109

---

molecular target: TGF-beta receptor type-1 (Homo sapiens) (UniProt P36897); details: at 10 µM
Sequence (P36897 whole entry): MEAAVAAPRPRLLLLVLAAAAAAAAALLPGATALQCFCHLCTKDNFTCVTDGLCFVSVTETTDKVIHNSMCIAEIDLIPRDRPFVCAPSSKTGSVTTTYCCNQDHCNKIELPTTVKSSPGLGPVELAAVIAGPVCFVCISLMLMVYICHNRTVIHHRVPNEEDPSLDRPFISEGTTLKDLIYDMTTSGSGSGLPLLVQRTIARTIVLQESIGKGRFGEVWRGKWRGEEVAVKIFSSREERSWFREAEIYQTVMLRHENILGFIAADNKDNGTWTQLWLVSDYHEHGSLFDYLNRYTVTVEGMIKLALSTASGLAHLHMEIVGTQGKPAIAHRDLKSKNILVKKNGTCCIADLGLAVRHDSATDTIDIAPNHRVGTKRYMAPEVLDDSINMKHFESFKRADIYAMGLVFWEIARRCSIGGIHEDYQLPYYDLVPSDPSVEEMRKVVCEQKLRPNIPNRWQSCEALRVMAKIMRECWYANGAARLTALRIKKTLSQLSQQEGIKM
Description: Millipore: Percentage of residual kinase activity of TGFBR1 at 10uM relative to control. Control inhibitor: Phosphoric acid* at 0.3uM. Buffer: 8 mM MOPS pH 7.0, 0.2 mM EDTA, 1 mM MnCl2
measured.property: residual activity (%)
Just the number please, in %, no unit attached.

{"molecule": "CCn1cnc2c(Nc3cccc(Cl)c3)nc(N[C@@H]3CCCC[C@@H]3N)nc21", "assay.target": "TGF-beta receptor type-1 (Homo sapiens) (UniProt P36897)", "unit.abbreviation": "%", "recorded.number": 79}

Record summary for COC(=O)[C@@]1(O)C[C@H]2O[C@]1(C)n1c3ccccc3c3c4c(c5c6ccccc6n2c5c31)C(=O)NC4 : reported residual activity = 8

Record summary for COc1ccc2c(c[n+](C)c3c4cc5c(cc4ccc23)OCO5)c1OC : reported residual activity = 89

Record summary for O=c1[nH]c2ccccc2n1C1CCN(Cc2ccc(-c3nc4cc5[nH]cnc5cc4nc3-c3ccccc3)cc2)CC1 : reported residual activity = 87

Record summary for C[S+]([O-])c1ccc(-c2nc(-c3ccc(F)cc3)c(-c3ccncc3)[nH]2)cc1 (stereo unspecified) : reported residual activity = 77

Record summary for c1cc(-c2cnn3cc(-c4ccc(OCCN5CCCCC5)cc4)cnc23)ccn1 : reported residual activity = 30

---

Each entry below carries its recorded residual activity.
biological target: Tyrosine-protein kinase JAK2 (Homo sapiens) (UniProt O60674); details: at 10 µM
Sequence (O60674 whole entry): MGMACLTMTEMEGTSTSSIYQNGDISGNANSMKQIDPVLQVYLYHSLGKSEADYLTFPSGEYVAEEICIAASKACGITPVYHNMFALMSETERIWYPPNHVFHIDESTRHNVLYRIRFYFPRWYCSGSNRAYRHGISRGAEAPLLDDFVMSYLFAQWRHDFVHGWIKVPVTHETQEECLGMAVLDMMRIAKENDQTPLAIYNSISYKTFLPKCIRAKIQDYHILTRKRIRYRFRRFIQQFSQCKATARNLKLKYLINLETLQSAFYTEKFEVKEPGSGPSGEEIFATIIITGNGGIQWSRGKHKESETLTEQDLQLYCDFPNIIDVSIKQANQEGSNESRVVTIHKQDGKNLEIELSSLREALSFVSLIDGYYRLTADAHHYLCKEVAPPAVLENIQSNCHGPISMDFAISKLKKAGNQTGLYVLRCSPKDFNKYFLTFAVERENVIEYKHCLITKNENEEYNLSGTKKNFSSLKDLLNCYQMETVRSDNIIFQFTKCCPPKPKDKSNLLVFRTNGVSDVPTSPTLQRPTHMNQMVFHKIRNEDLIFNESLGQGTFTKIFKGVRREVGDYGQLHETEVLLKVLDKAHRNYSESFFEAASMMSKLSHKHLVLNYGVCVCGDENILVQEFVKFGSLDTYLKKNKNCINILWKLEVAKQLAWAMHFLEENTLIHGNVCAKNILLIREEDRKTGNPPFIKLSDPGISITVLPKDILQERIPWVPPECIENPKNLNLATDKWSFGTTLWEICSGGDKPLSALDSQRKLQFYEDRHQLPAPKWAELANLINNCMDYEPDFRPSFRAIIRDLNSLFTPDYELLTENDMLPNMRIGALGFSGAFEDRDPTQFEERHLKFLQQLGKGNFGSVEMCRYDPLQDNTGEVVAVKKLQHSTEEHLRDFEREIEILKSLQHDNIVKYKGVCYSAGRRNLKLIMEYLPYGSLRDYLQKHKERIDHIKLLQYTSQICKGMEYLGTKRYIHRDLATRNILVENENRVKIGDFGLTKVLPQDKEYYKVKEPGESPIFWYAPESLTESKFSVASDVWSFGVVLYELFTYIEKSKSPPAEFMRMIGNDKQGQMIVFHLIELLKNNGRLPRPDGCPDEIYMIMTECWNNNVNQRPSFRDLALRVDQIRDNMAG
Just the number please, in %, no unit attached.

Record summary for COc1ccc2c(c1)/C(=C/c1cnc[nH]1)C(=O)N2 : reported residual activity = 29

Record summary for COc1cc2ncnc(Nc3ccc(OCc4ccccc4)cc3)c2cc1OC : reported residual activity = 90

Record summary for O=c1[nH]c2ccccc2n1C1CCN(Cc2ccc(-c3nc4cc5[nH]cnc5cc4nc3-c3ccccc3)cc2)CC1 : reported residual activity = 107

Record summary for COc1ccc2c(c[n+](C)c3c4cc5c(cc4ccc23)OCO5)c1OC : reported residual activity = 121

Record summary for CCn1cnc2c(Nc3cccc(Cl)c3)nc(N[C@@H]3CCCC[C@@H]3N)nc21 : reported residual activity = 78

---

Each entry below carries its recorded residual activity.
target: RAC-alpha serine/threonine-protein kinase (Homo sapiens) (UniProt P31749); conditions: at 10 µM
Just the number please, in %, no unit attached.

Answered examples (3):
{"molecule.smiles": "Nc1ncnc2c1c(-c1ccc(Oc3ccccc3)cc1)cn2C1CCCC1", "unit.abbreviation": "%", "residual activity": 111}
{"molecule.smiles": "O=c1[nH]c2ccccc2n1C1CCN(Cc2ccc(-c3nc4cc5[nH]cnc5cc4nc3-c3ccccc3)cc2)CC1", "unit.abbreviation": "%", "residual activity": 90}
{"molecule.smiles": "CC(C)(C)c1nc2c3ccc(F)cc3c3c(=O)[nH]ccc3c2[nH]1", "unit.abbreviation": "%", "residual activity": 104}

Here's the next entry for you.
Tested on RAC-alpha serine/threonine-protein kinase (Homo sapiens) (UniProt P31749), the item O=c1cc(N2CCOCC2)oc2c1ccc1ccccc12 showed residual activity equal to 106

This collection of values is drawn from ChEMBL document CHEMBL2218924.
